# credit: patent US20200024330A1

Target: HIV-1 JR-CSF Env I415A (HIV-1 (isolate JR-CSF)) (UniProt P20871)
Assay: cell-based or functional assay
parameter measured: Fold IC50 increase relative to wild-type (fold)
Could you give me the number in fold? Just the number is fine.

Q: Which Fold IC50 increase relative to wild-type is listed for PGT-131 (antibody, V domains shown) VH: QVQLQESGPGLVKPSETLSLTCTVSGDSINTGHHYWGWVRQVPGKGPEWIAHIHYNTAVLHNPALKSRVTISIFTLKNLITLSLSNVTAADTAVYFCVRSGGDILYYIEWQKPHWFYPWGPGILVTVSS VL: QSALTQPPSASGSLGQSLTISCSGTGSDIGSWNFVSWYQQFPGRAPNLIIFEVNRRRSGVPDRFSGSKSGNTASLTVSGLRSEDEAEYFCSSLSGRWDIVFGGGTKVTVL ?
Ans: 0.6

Q: Would you kindly repeat that for PGT-126 (antibody, V domains shown) VH: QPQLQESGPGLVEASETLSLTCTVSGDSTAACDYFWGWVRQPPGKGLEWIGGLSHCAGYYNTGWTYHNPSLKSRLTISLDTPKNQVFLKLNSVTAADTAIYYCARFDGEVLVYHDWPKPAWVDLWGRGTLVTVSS VL: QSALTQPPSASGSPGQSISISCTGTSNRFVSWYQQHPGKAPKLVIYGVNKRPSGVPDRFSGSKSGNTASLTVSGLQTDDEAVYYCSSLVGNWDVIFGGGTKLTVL ?
Ans: 0.3

Q: Query PGT-123 (antibody, V domains shown) VH: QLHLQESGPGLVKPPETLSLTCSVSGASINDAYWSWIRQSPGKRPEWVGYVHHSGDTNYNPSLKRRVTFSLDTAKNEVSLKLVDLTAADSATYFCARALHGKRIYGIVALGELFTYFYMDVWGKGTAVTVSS VL: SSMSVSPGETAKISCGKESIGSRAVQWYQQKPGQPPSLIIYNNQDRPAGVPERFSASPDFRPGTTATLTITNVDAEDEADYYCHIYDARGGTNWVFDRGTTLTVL next
Ans: 0.4

Q: Now try PGT-125 (antibody, V domains shown) VH: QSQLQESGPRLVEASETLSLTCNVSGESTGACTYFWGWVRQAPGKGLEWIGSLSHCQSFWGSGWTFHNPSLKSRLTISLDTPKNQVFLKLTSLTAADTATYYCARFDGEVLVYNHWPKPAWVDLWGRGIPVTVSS VL: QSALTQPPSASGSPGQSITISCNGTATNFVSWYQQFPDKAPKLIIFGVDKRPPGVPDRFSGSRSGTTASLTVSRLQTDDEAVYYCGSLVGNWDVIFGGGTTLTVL .
Ans: 0.3

Q: Ok, now PGT-128 (antibody, V domains shown) VH: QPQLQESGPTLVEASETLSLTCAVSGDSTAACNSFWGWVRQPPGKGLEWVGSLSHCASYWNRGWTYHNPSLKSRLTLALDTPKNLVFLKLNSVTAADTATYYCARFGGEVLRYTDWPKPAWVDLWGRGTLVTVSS VL: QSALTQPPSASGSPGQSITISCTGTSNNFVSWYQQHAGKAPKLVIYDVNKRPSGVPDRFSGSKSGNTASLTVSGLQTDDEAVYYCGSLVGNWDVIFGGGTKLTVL
Ans: 0.7

Q: And for PGT-135 (antibody, V domains shown) VH: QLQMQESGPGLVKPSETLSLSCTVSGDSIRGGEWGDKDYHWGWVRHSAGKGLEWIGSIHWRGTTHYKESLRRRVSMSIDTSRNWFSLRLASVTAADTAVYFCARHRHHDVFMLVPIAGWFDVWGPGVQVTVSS VL: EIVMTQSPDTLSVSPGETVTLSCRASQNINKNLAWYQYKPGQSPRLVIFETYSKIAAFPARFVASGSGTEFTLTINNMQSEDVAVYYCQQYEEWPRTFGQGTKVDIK ?
Ans: 5
